Target: T1, CD3 epsilon homodimer protein (UniProt P07766 23-126)
T1 construct: also called CD3 (CD3 epsilon)
T1 sequence (P07766 23-126): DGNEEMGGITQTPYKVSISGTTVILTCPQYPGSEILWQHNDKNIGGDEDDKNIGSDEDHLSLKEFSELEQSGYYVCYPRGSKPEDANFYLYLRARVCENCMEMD
Test: SPR Biacore T200, CD3e homodimer on chip, vs unaltered GLS3000 antibody
ratio of amounts bound (Z=Y/X) reference
Lab note: record the figure alone, no unit after it.

{"binder": "GLS3000 Y96E (antibody, name in Kabat numbering, V domains shown, one-arm IgG as m2) VH: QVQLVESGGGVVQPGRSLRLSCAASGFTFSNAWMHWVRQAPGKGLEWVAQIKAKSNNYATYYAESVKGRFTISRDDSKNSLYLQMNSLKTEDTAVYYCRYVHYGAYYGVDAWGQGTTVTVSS VL: DIVMTQSPLSLPVTPGEPASISCRSSQSLVHSNRNTYLHWYQQKPGQAPRLLIYKVSNRFSGVPDRFSGSGSGTDFTLKISRVEAEDVGVYYCGQGTQVPETFGQGTKLEIK", "endpoint.result": 0.17}
{"binder": "GLS3000 L27bS (antibody, name in Kabat numbering, V domains shown, one-arm IgG as m2) VH: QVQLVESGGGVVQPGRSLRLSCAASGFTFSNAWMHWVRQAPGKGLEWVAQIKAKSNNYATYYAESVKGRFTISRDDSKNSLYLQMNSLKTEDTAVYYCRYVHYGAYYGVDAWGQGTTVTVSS VL: DIVMTQSPLSLPVTPGEPASISCRSSQSSVHSNRNTYLHWYQQKPGQAPRLLIYKVSNRFSGVPDRFSGSGSGTDFTLKISRVEAEDVGVYYCGQGTQVPYTFGQGTKLEIK", "endpoint.result": 0.71}
{"binder": "GLS3000 F55Q (antibody, name in Kabat numbering, V domains shown, one-arm IgG as m2) VH: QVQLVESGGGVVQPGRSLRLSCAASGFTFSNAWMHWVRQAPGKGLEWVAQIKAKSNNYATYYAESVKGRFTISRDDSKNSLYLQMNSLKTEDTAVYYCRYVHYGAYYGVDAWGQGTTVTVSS VL: DIVMTQSPLSLPVTPGEPASISCRSSQSLVHSNRNTYLHWYQQKPGQAPRLLIYKVSNRQSGVPDRFSGSGSGTDFTLKISRVEAEDVGVYYCGQGTQVPYTFGQGTKLEIK", "endpoint.result": 0.91}
{"binder": "GLS3000 N28A (antibody, name in Kabat numbering, V domains shown, one-arm IgG as m2) VH: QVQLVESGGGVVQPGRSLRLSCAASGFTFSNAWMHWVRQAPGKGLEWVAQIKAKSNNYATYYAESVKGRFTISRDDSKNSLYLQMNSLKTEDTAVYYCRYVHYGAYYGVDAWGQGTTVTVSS VL: DIVMTQSPLSLPVTPGEPASISCRSSQSLVHSARNTYLHWYQQKPGQAPRLLIYKVSNRFSGVPDRFSGSGSGTDFTLKISRVEAEDVGVYYCGQGTQVPYTFGQGTKLEIK", "endpoint.result": 0.25}

Here is the next item to consider.
Inquiry: Entry GLS3000 N53Q (antibody, name in Kabat numbering, V domains shown, one-arm IgG as m2) VH: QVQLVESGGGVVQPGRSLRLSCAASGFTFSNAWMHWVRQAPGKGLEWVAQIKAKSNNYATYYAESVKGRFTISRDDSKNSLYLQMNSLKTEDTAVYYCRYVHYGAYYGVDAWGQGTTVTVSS VL: DIVMTQSPLSLPVTPGEPASISCRSSQSLVHSNRNTYLHWYQQKPGQAPRLLIYKVSQRFSGVPDRFSGSGSGTDFTLKISRVEAEDVGVYYCGQGTQVPYTFGQGTKLEIK has what ratio of amounts bound (Z=Y/X)?
Reply text: 0.77
